Provenance of the data: ChEMBL document CHEMBL3879914

ASSAY_SYSTEM: Vasoactive intestinal polypeptide receptor 2 (Homo sapiens) (UniProt P41587)
METHOD_DESCRIPTION: Antagonist activity at recombinant human N-terminal signal peptide/FLAG epitope-tagged VIPR2 expressed in HEK293 cells co-expressing CAMYEL assessed as inhibition of VIP-induced cAMP accumulation at 5 uM preincubated for 5 mins with luciferin, coelenterazine H followed by VIP addition measured after 5 mins by BRET assay relative to control
Type: functional, cell-based
# inhibition listing for each entry below
Lab book: enter the figure in %, no units written.

Example entries and their recorded answers appear below.
CPD_SMILES	UNIT_ANNOTATION	inhibition
CC(C)c1ccc(S(=O)(=O)NC[C@@H](O)C[C@@H](Cc2ccccc2)C(=O)N[C@H]2c3ccccc3C[C@H]2O)cc1	%	98.2
CC(=O)c1ccc(S(=O)(=O)NC[C@@H](O)C[C@@H](Cc2ccccc2)C(=O)N[C@H]2c3ccccc3C[C@H]2O)cc1	%	96
O=C(Nc1ccc(S(=O)(=O)NC[C@@H](O)C[C@@H](Cc2ccccc2)C(=O)N[C@H]2c3ccccc3C[C@H]2O)cc1)C1CC1	%	34.3

Now consider the entry below.
So, O=C(NC[C@@H](O)C[C@@H](Cc1ccccc1)C(=O)N[C@H]1c2ccccc2C[C@H]1O)c1ccco1 ? Its inhibition was 19.1

* * *

ASSAY_SYSTEM: Vasoactive intestinal polypeptide receptor 2 (Homo sapiens) (UniProt P41587)
METHOD_DESCRIPTION: Antagonist activity at recombinant human N-terminal signal peptide/FLAG epitope-tagged Rluc8-fused VIPR2 expressed in HEK293 cells assessed as inhibition of VIP-induced human mVenus-beta-arrestin2 binding at 5 uM preincubated for 5 mins with luciferin, coelenterazine H followed by VIP addition measured after 5 mins by BRET assay relative to control
Assay type: cell-based
OBSERVABLE: inhibition

Example entries and their recorded answers appear below.
MOLECULE	OBSERVABLE	RESULT
CC(=O)Nc1ccc(S(=O)(=O)NC[C@H](C[C@@H](Cc2ccccc2)C(=O)N[C@H]2c3ccccc3C[C@H]2O)OC(C)=O)cc1	inhibition	10.5%
O=C(NC1CCCCCC1)[C@H](Cc1ccccc1)C[C@H](O)CNS(=O)(=O)c1ccc([N+](=O)[O-])cc1	inhibition	-2.4%
O=C(Nc1ccc(S(=O)(=O)NC[C@@H](O)C[C@@H](Cc2ccccc2)C(=O)N[C@H]2c3ccccc3C[C@H]2O)cc1)C1CC1	inhibition	-4.2%
CNC(=O)c1ccc(S(=O)(=O)NC[C@@H](O)C[C@@H](Cc2ccccc2)C(=O)N[C@H]2c3ccccc3C[C@H]2O)cc1	inhibition	-1%
O=C(NN1CCCCC1)[C@@H](Cc1ccccc1)C[C@H](O)CNS(=O)(=O)c1ccc([N+](=O)[O-])cc1	inhibition	4.7%

So, O=C([C@H](Cc1ccccc1)C[C@H](O)CNS(=O)(=O)c1ccc([N+](=O)[O-])cc1)N1CCC(CO)CC1 ? Its inhibition was -4.5%

So, O=C(NC[C@@H](O)C[C@@H](Cc1ccccc1)C(=O)N[C@H]1c2ccccc2C[C@H]1O)c1ccccn1 ? Its inhibition was 5.5%

So, O=C([C@H](Cc1ccccc1)C[C@H](O)CNS(=O)(=O)c1ccc([N+](=O)[O-])cc1)N1CCCCC1 ? Its inhibition was -2.8%

* * *

# inhibition listing for each entry below
ASSAY_SYSTEM: UniProt P41587
METHOD_DESCRIPTION: Antagonist activity at recombinant human N-terminal signal peptide/FLAG epitope-tagged Rluc8-fused VIPR2 expressed in HEK293 cells assessed as inhibition of VIP-induced human mVenus-beta-arrestin2 binding at 1 uM preincubated for 5 mins with luciferin, coelenterazine H followed by VIP addition measured after 5 mins by BRET assay relative to control
Type: cell-based
Lab book: enter the figure in %, no units written.

CPD_SMILES	ASSAY_SYSTEM	inhibition / %
O=C(NCc1ccc(F)cc1F)[C@@H](Cc1ccccc1)C[C@H](O)CNS(=O)(=O)c1ccc([N+](=O)[O-])cc1	UniProt P41587	20
Cc1ccc(S(=O)(=O)NC[C@@H](O)C[C@@H](Cc2ccccc2)C(=O)N[C@H]2c3ccccc3C[C@H]2O)cc1	UniProt P41587	80.4
O=C(N[C@H]1c2ccccc2C[C@H]1O)[C@H](Cc1ccccc1)C[C@H](O)CNS(=O)(=O)c1ccccc1C(F)(F)F	UniProt P41587	24.8
CCNC(=O)[C@@H](Cc1ccccc1)C[C@H](O)CNS(=O)(=O)c1ccc([N+](=O)[O-])cc1	UniProt P41587	6
O=C(NC[C@@H](O)C[C@@H](Cc1ccccc1)C(=O)N[C@H]1c2ccccc2C[C@H]1O)c1c(Cl)cc(Cl)cc1Cl	UniProt P41587	25.3
O=C(NC[C@@H](O)C[C@@H](Cc1ccccc1)C(=O)N[C@H]1c2ccccc2C[C@H]1O)c1cccnc1	UniProt P41587	-5.7

Now consider the entry below.
Record Cc1ccc([N+](=O)[O-])cc1S(=O)(=O)NC[C@@H](O)C[C@@H](Cc1ccccc1)C(=O)N[C@H]1c2ccccc2C[C@H]1O ; system UniProt P41587; inhibition = -3.8

* * *

# inhibition listing for each entry below
ASSAY_SYSTEM: Vasoactive intestinal polypeptide receptor 2 (Homo sapiens)
Sequence (whole entry): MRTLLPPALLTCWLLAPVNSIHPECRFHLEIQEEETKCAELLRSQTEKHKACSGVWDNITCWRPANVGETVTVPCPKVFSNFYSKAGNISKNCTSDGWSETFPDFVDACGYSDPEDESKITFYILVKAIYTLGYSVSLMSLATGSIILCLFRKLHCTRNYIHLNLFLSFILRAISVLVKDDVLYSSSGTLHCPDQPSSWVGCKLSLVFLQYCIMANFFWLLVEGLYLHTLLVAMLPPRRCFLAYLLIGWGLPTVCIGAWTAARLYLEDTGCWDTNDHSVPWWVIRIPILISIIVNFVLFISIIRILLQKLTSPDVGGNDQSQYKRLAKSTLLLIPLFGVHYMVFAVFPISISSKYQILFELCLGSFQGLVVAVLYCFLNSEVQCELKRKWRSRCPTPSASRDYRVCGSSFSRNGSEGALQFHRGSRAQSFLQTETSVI
METHOD_DESCRIPTION: Antagonist activity at recombinant human N-terminal signal peptide/FLAG epitope-tagged Rluc8-fused VIPR2 expressed in HEK293 cells assessed as inhibition of VIP-induced human mVenus-beta-arrestin2 binding at 0.5 uM preincubated for 5 mins with luciferin, coelenterazine H followed by VIP addition measured after 5 mins by BRET assay relative to control
Type: cell-based

Example entries and their recorded answers appear below.
MOLECULE	inhibition
Nc1ccc(S(=O)(=O)NC[C@@H](O)C[C@@H](Cc2ccccc2)C(=O)N[C@H]2c3ccccc3C[C@H]2O)cc1	-5.6 to 20%
CC1CCC(NC(=O)[C@@H](Cc2ccccc2)C[C@H](O)CNS(=O)(=O)c2ccc([N+](=O)[O-])cc2)CC1 (stereo partly specified)	2.15 to 5.7%
CCCCNC(=O)[C@H](Cc1ccccc1)C[C@H](O)CNS(=O)(=O)c1ccc([N+](=O)[O-])cc1	-5.6 to 9.55%
O=C([C@H](Cc1ccccc1)C[C@H](O)CNS(=O)(=O)c1ccc([N+](=O)[O-])cc1)N1CCOCC1	-4.3 to 0.6%
COc1ccc(S(=O)(=O)NC[C@@H](O)C[C@@H](Cc2ccccc2)C(=O)N[C@H]2c3ccccc3C[C@H]2O)cc1OC	10.5 to 30.1%

So, O=C(NC[C@@H](O)C[C@@H](Cc1ccccc1)C(=O)N[C@H]1c2ccccc2C[C@H]1O)C1CC1 ? Its inhibition was -3.8 to 26.6%

So, CC(C)(C)c1ccc(S(=O)(=O)NC[C@@H](O)C[C@@H](Cc2ccccc2)C(=O)N[C@H]2c3ccccc3C[C@H]2O)cc1 ? Its inhibition was 0%

So, O=C([C@H](Cc1ccccc1)C[C@H](O)CNS(=O)(=O)c1ccc([N+](=O)[O-])cc1)N1CCC(CO)CC1 ? Its inhibition was -8.4 to 0.85%

* * *

# inhibition listing for each entry below
ASSAY_SYSTEM: Vasoactive intestinal polypeptide receptor 2 (Homo sapiens) (UniProt P41587)
METHOD_DESCRIPTION: Antagonist activity at recombinant human N-terminal signal peptide/FLAG epitope-tagged Rluc8-fused VIPR2 expressed in HEK293 cells assessed as inhibition of VIP-induced human mVenus-beta-arrestin2 binding at 5 uM preincubated for 5 mins with luciferin, coelenterazine H followed by VIP addition measured after 5 mins by BRET assay relative to control
Assay type: cell-based

So, O=C(N[C@H]1c2ccccc2C[C@H]1O)[C@H](Cc1ccccc1)C[C@H](O)CNS(=O)(=O)c1ccc(C(F)(F)F)cc1 ? Its inhibition was 92.9%

So, O=C(NC[C@@H](O)C[C@@H](Cc1ccccc1)C(=O)N[C@H]1c2ccccc2C[C@H]1O)c1ccc2ccccc2c1 ? Its inhibition was 9.7%

So, O=C(N[C@H]1c2ccccc2C[C@H]1O)[C@H](Cc1ccccc1)C[C@H](O)CNS(=O)(=O)c1ccccc1C(F)(F)F ? Its inhibition was 21%

So, O=C(NC1CCCc2ccccc21)[C@H](Cc1ccccc1)C[C@H](O)CNS(=O)(=O)c1ccc([N+](=O)[O-])cc1 (stereo not given in full) ? Its inhibition was 10.2%

So, O=C(N[C@H]1c2ccccc2C[C@H]1O)[C@H](Cc1ccccc1)C[C@H](O)CNS(=O)(=O)c1ccccc1F ? Its inhibition was 52%

So, O=C(NC[C@@H](O)C[C@@H](Cc1ccccc1)C(=O)N[C@H]1c2ccccc2C[C@H]1O)c1cccnc1 ? Its inhibition was -6.3%

So, O=C(N[C@H]1c2ccccc2C[C@H]1O)[C@H](Cc1ccccc1)C[C@H](O)CNS(=O)(=O)c1ccc(C(=O)N2CCOCC2)cc1 ? Its inhibition was -5.4%

So, CC(C)CS(=O)(=O)NC[C@@H](O)C[C@@H](Cc1ccccc1)C(=O)N[C@H]1c2ccccc2C[C@H]1O ? Its inhibition was 20%

So, CC(C)c1cc(C(C)C)c(S(=O)(=O)NC[C@@H](O)C[C@@H](Cc2ccccc2)C(=O)N[C@H]2c3ccccc3C[C@H]2O)c(C(C)C)c1 ? Its inhibition was 8.3%

So, O=C(NC1CCCC1)[C@H](Cc1ccccc1)C[C@H](O)CNS(=O)(=O)c1ccc([N+](=O)[O-])cc1 ? Its inhibition was 9.2%

So, O=C(Cc1cccc(Cl)c1)NC[C@@H](O)C[C@@H](Cc1ccccc1)C(=O)N[C@H]1c2ccccc2C[C@H]1O ? Its inhibition was 17.2%
